- System: Pseudomonas aeruginosa
- assay details: Antibiofilm activity against Pseudomonas aeruginosa assessed as inhibition of biofilm formation incubated for 24 hrs by crystal violet method
- Assay type: functional, organism-based
outcome measure: IC50 (µM)
Number only, in µM; omit the unit.

Prompt: For the compound `Cn1cc(-c2csc(-c3cn(CCN)c4ccc(F)cc34)n2)c2ccccc21` , give its reported IC50.
Completion: 9.9

###

- Tested on: Cryptococcus neoformans
- assay details: Antifungal activity against Cryptococcus neoformans assessed as fungal growth inhibition
- Format: functional, organism-based
Examples of molecules with documented log10(IC50) follow.
Form field - Quantity: IC50; Unit: µM; Scale: log10

For orientation, consider the following solved cases.
Prompt: For the molecule `O=C(O)[C@@H]1Cc2c[nH]c3ccc4oc5nc6ccc(O)cc6c-5c(c4c23)N1` , give its reported log10(IC50).
Completion: 1.05

Prompt: For the molecule `Oc1ccc2nc3oc4ccc5[nH]cc6cc[nH]c(c-3c2c1)c4c65` , give its reported log10(IC50).
Completion: 0.81

More entries:
Prompt: For the molecule `CSc1c(-c2c(-c3c[nH]c4ccc(O)cc34)c(=O)n3c4ccc(O)cc4c4cc(C(=O)O)nc2c43)[n+](C)cn1C` , give its reported log10(IC50).
Completion: 1.16
